Cited source: ChEMBL document CHEMBL1153098

- test target: Serine/threonine-protein kinase mTOR (Homo sapiens)
- procedure text: Inhibition of mTOR
measured property: IC50 (nM)

| test smiles | test target | obs value |
| --- | --- | --- |
| Nc1ncc(-c2nc(N3CC4CCC(C3)O4)c3sccc3n2)cn1 | Serine/threonine-protein kinase mTOR (Homo sapiens) | 57 |
| Nc1ncc(-c2nc(N3CCOCC3)c3sccc3n2)cn1 | Serine/threonine-protein kinase mTOR (Homo sapiens) | 61 |
| CS(=O)(=O)N1CCN(Cc2cc3nc(-c4ccc(NC(=O)NC5CC5)cc4)nc(N4CC5CCC(C4)O5)c3s2)CC1 | Serine/threonine-protein kinase mTOR (Homo sapiens) | 1 |
| O=C(Nc1ccc(-c2nc(N3CC4CCC(C3)O4)c3sccc3n2)cc1)NC1CC1 | Serine/threonine-protein kinase mTOR (Homo sapiens) | 0.68 |
| CCNC(=O)Nc1ccc(-c2nc(N3CC4CCC(C3)O4)c3sccc3n2)cc1 | Serine/threonine-protein kinase mTOR (Homo sapiens) | 0.7 |
| Nc1ccc(-c2nc(N3CC4CCC(C3)O4)c3sccc3n2)cn1 | Serine/threonine-protein kinase mTOR (Homo sapiens) | 35 |

----------
# pIC50 per record follows
- test target: Phosphatidylinositol 4,5-bisphosphate 3-kinase catalytic subunit alpha isoform (Homo sapiens, UniProt P42336)
- Sequence (P42336 whole entry, canonical isoform): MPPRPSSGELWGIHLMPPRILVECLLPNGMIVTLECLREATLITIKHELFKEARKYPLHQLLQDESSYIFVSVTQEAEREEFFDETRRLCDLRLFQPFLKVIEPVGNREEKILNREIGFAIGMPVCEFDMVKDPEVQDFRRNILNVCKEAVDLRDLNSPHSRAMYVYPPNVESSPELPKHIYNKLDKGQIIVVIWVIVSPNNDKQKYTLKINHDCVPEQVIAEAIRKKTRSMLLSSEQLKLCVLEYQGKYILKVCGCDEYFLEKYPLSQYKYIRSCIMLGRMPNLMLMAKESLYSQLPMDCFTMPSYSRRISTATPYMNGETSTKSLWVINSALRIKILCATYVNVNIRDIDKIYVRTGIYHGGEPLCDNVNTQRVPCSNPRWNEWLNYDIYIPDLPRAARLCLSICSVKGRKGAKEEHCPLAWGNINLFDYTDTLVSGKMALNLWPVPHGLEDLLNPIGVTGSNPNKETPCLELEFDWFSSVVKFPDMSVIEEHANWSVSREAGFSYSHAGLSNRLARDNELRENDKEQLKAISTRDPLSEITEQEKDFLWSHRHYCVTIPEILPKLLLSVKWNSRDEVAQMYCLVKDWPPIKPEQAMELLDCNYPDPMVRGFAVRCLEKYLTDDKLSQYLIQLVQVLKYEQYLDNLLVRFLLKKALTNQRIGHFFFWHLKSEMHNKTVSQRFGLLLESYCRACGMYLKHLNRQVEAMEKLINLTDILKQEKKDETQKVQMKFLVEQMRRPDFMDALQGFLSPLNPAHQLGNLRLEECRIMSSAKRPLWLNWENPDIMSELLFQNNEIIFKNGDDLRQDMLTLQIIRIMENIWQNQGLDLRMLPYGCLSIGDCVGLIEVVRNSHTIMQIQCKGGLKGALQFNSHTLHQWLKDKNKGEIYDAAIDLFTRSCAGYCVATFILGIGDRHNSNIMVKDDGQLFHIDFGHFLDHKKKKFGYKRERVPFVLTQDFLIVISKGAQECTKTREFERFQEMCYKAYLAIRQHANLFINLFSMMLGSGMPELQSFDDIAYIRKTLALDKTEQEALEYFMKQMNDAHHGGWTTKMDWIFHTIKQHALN
- procedure text: Inhibition of PI3Kalpha
pIC50: −log10 of the molar value.
measured property: pIC50

| test smiles | censor symbol | obs value |
| --- | --- | --- |
| Nc1ncc(-c2nc(N3CCOCC3)c3sccc3n2)cn1 | = | 8.07 |
| CS(=O)(=O)N1CCN(Cc2cc3nc(-c4ccc(NC(=O)Nc5ccncc5)cc4)nc(N4CC5CCC(C4)O5)c3s2)CC1 | = | 8.08 |
| Oc1cccc(-c2nc(N3CCOCC3)c3sccc3n2)c1 | = | 7.39 |
| Nc1ccc(-c2nc(N3CC4CCC(C3)O4)c3sccc3n2)cc1 | < | 5.00 |

----------
Entries and their measured Ratio IC50 follow.
- procedure text: Selectivity index, ratio of IC50 for PI3Kalpha to IC50 for mTOR

| test smiles | Ratio IC50 |
| --- | --- |
| Nc1ncc(-c2nc(N3CCOCC3)c3sccc3n2)cn1 | 0.14 |
| O=C(Nc1ccc(-c2nc(N3CC4CCC(C3)O4)c3sccc3n2)cc1)NC1CC1 | 2010 |
| O=C(NCCF)Nc1ccc(-c2nc(N3CC4CCC(C3)O4)c3sccc3n2)cc1 | 1110 |
| Nc1ncc(-c2nc(N3CC4CCC(C3)O4)c3sccc3n2)cn1 | 4.4 |
| Oc1cccc(-c2nc(N3CCOCC3)c3sccc3n2)c1 | 0.9 |
| c1cc2cc(-c3nc(N4CC5CCC(C4)O5)c4sccc4n3)ccc2[nH]1 | 392 |

----------
- procedure text: Selectivity index, ratio of IC50 for PI3Kalpha to IC50 for mTOR

| test smiles | Ratio IC50 |
| --- | --- |
| Nc1ccc(-c2nc(N3CC4CCC(C3)O4)c3sccc3n2)cn1 | 51 |
| CC(=O)Nc1ccc(-c2nc(N3CC4CCC(C3)O4)c3sccc3n2)cc1 | 165 |
| CN1CCN(Cc2cc3nc(-c4ccc(NC(=O)Nc5ccncc5)cc4)nc(N4CC5CCC(C4)O5)c3s2)CC1 | 23 |
| O=C(Nc1ccc(-c2nc(N3CC4CCC(C3)O4)c3sccc3n2)cc1)Nc1cccnc1 | 410 |
